Assay: soluble fraction after stress (log2 fold change); higher = more stays soluble; pooled small domains, quantitative proteomics;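 further: 20 min heating vs room temperature control held 20 min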
Conditions: stress: 75 degC
Field: soluble fraction (log2). Provide a value for each of the sequences that follow.

1) HMQAVKQIKVERGMTLEKIAQSEFGDSTRWGEIVEVNNLRAPYISDDPTETRDGVLKPGSNLLIPIP : -0.0397
2) HMSRESNISTGRQLLEAQLPTWGYKKVEDIPSKQMKTALDAFNYKDVESLLQGLGEGSVALTTALRRLMP : -0.095

List the reported soluble fraction (log2) of each sequence below.
1. HMQEKLELIIPVSSIGKRADVAIQDLLSSYSRAKIQEWIKSGFILLESKKISPKDIFMGGERVFIDIQQDE
2. HMDPSKLVEVQEPVSMKALSEGLGIKVTELIATFAFKLKIGGKNINSMLSNDEVELVALDLERNIKVV
3. HMNLAPLLTEYVQINFRRASEMKTYLEQANLISERGFLLADDQTNILMVRETGASIEEIRRTLNRF
4. HMQISDVSLIAKVIDDVIDNNVKSVSDYLEGNLNVLRFLVGQVMKETKGKANPQKATELLQEKLESLNN

1. -1.86
2. 0.258
3. -1.92
4. -0.896

# batch size: 3; output soluble fraction (log2) per entry
1. HMTEYFTIESQEGERIDRYLSEELEDKSRSYIQKLIRDGHVLVDGKTVKAGYRLVAGDNIAITLPEI
2. HMLMRSPDFLIGWFQNLVAKRETFNDQVQAKNLIEAGKQHIQGEDFDRLLEVNRRLFSLLPQREQE
3. HMNGAVAEQARKQLMAALKASEFIAEEKLDEWLDALALPEDKRTAIVDAVDELDYEEAISELEN

1. -0.132
2. 0.177
3. 0.429

Go through the list and state soluble fraction (log2) for each entry.
1. HMKTKTIMSTGAREDLVKMINEYYYSKNYIITEDNRIYNTKTEKFMDDLSVKFYRGRWKVIRN
2. HMSSGKTGTITLQPKQTVYGITKQYKISEADLRKLNPQLDSNLKIGDKITLPLDNIQRYSDSSSNVAQT
3. HMPEIFYRKIHRTDHDQIALDAEMIRLLIAIDEKKSLSQIAAEVQMEPMALKKNLGKLIQLGLVEPIK
4. HMISRDPYDAGAIKRHFSASGLFSSKELAHYLGKSVSTAKNVLSDLQQQGIVEMVGQGPATKYRFI

1. -0.852
2. 0.0568
3. -0.616
4. 0.772

Please state, for each entry, its recorded soluble fraction (log2).
1. HMSYEDLIQAVSGHFGIEIRALLSEDRKKENMIPRQVAMYLLKNKLHYTYERIGNIFSGRNHTAVMYSV
2. HMEQIETIFLSAAPYARTHIIHLLETSELFRDKYLTIVETSNGLLIYTEDKNRLLGILNSLT
3. HMVKKYEKVKEYLLERILDGTYVPDLPIPPERELASLLDVNRMTVRRAVEELMYDGYLIRKKGSGTYLTR
4. HMSELTKEIGKRIHDFRKSRGLNQEELARLIYKSKATLSKYEKGEIAIDLDTLKQLALALHVRMEQLLPPT

-0.263
-2.51
-1.6
-1.5

###

Assay: soluble fraction after stress (log2 fold change); higher = more stays soluble; pooled small domains, quantitative proteomics
Conditions: stress: 75 degC
Record form. Attribute: soluble fraction (log2). Fill in for each entry.
One number for each entry.

Worked set:
1. HMDINMELGKNIRRLRKLNNLTQQSLANQMNRSKTLIALWEKGERDPSSIDLKRLSEIFNVRADDIIG : -0.799
2. HMKTVKPSQIPYSEFLKLVETDKINDVSMVGRNIIGHLDDGSKFKTYTPPNDPTLIEKLSSHNIVINAAPE : 0.0923

Take each entry in turn and give its soluble fraction (log2).
1. HMVVLNQEQIKFIDHYLQVSKVRYVDVRSELTDHIATAVELKMQDEALDFYEAFKAFIAVNKSQLLQRN
2. HMEEEPALLRDLLAKTLEFGLIPQLSHHPALADRTQQLASAVRAAGSASALRNAAASLKSLWIDVDQ

[-1.06, -0.0158]

Required: soluble fraction (log2), one value per sequence below.
1. HMYSINKTEFGERIKSAREELKMTQTQLAQLLKTSQTTVAKYEHGEQIPRADVLATISKATGKSTDWLLFG
2. HMSLANTSVKEMLNDLVKNEEPSKPLSDEALVKIFKEKGVKIARRTVAKYRAELNILPSHLRRT
3. HMSGPSDRDLFDEALALLSGSGREPDYHEARIRLGTLVEQFPESKWAEGAKALLSMLDRVSALQV
4. HMRSVLSDEIYLLIRKMIFNYEILPGAKVNIDALAKKLDVSQTPVREALSRLESDGLIVKEPLKGFRATD
5. HMSYGKVQFVIDAKDAVLSIDGKETDYEKPVKLTYGSHTITVYSSDYDTWKRNLYVNSEKSTVVINLA

1: -0.268; 2: -1.56; 3: 0.247; 4: -2.72; 5: -3.13

Hi! Can you tell me soluble fraction (log2) for each of these sequences?
1. HMTTKYMVLVNWVKEKVRTNELKTGEKLYSEHEFSRMFHMSRQTVRHGISILERENIVERRQGSGTFIKDA
2. HMTTEPYILTRMPDGSIKAEPNLNYKGPEQKPGSNIQVKGADGRIYLVPIDGQGKPGKPQLVD
3. HMASRSQTEIMHLLSSGLPKHELVTALQSLLGISKPTAYKYLSQDVSIAYDHMVKILEYPPFQRVLYQ
4. HMKTAWDELNEVIEAYRGQESALIEVLHKAQEIMGYLPRDVQEAIAEGLHVPLNKVYGVVSFYHHFSV
5. HMINDKLQHLFSLFPAMDKELKRKGITRQILWVEYKKQYPLGFGRSQFNSYFAAWKAQVSPS

-2.95
0.0898
-1.93
0.449
-1.98

Consider the following items and state reported soluble fraction (log2) for each.
1. HMDPTVTFIVQVNGRVRDKITLSSDISENEAKNVALESPKITPHISGKSLSRVIFVPGKLINLVV
2. HMPFDWSAFDWKGWADEALAIIKTANQDQMNKWTEDNEKIIVQAETAAPDIYKTVGDEYDKKMESFN

1. -1.06
2. 0.0145

###

Experiment: soluble fraction after stress (log2 fold change); higher = more stays soluble; pooled small domains, quantitative proteomics
Settings: stress: 75 degC
Classify as follows. Reported soluble fraction (log2) greater than or equal to 0.01: 1. Reported soluble fraction (log2) below: -1.

1. HMDSVSAVRTTHLNSYVLLLEKDGMAAATISRYIASMKGFFEYLFREHMIEEDPAFTLKPPKV : -1
2. HMRRSLIGPTVRERRRALGITQSRLAAEVGISASYLNLIEGDKRNIGGALLQRIAGALGLALD : -1
3. HMDVQPTTTKTMFYTVQQGETLFSISRKFGISVEEITKKNPLASSGLTVGMELLLPEKKEINSTIQS : 1
4. HMVAPPILNITTHIFAEEADLRMVMINGVTRREGDSLGENHRLLEITERGLILIFHNKQYTLDV : -1
5. HMRGGWESLTDREREIAVLAAEGHSNRTIASTLFISDRTVQSHVSRALRALGVDSRTGIPSLVTTATR : 1

Does the sequence HMSIGKEATPDDIVPNIRVYHATFGYGNVIKTDGVSHDKKAVVNFDSVGEKTLLLKFAKLILPY have recorded soluble fraction (log2) that is 0.01 or more?
-1

Has HMGPPAVGAKLQVLRQARKLSLDELSRRAGVSKSMLSQVERNLANPTVAVLWRLATALGVGLADFLSP a recorded soluble fraction (log2) greater than or equal to 0.01?
-1

# bool: soluble fraction (log2) of HMEPLKLGDATGDGKINLQDVLEMQKHMAGILVLKGKFFTAADVNGNGKIELVDVLSVQKYLAGVTAEV >= 0.01
1

###

Test: soluble fraction after stress (log2 fold change); higher = more stays soluble; pooled small domains, quantitative proteomics
Conditions: stress: 75 degC
observable: soluble fraction (log2)
Give bare numbers.

Provide the reported soluble fraction (log2) of each entry below, same order.
1. HMSDDIPVHYRLDVNDAARALKLLTDNGFSAETAESGLNVYMTRLQSAEAARLLVENNIAVYGLTAV
2. HMQGDHELSQRILSYLSEQGGSSPLTDKASPEEIYRIFRVSKKKYKQALGNLYKSKSIIILADKIQLL
3. HMPKIPRLTLTETAGIMGVSQRALALAIQQGMYSWAQALPGRNKKRPIYFINAITFAKAQGIDLEEYK
4. HMNLYERFPIHELWKETFNETLDEEEHITFITSEFKPENIVLGQGFIAAPSKKDAVDWLKVIRTVLIFYDS

[-0.297, -3.2, -1.13, -2.37]

###

Hi there, I'd appreciate the recorded soluble fraction (log2) for every entry that follows.
Assay: soluble fraction after stress (log2 fold change); higher = more stays soluble; pooled small domains, quantitative proteomics
Details: stress: 75 degC

Take each entry in turn and give its soluble fraction (log2).
1. HMDFGMPEELQKKLDKMPALKAAFEALTPGRQRGYIFYFSQPKQSKTRELRIEKSIEQIMNGKGLND
2. HMDSPRITMDQLRIGLYVYLDLTWFQHPFAFSHFKINSEDQIKTILGLGLKSVRYDPALSDPV
3. HMSAQDLIVRRDSARIEARVTEISPTEIRYKRASNPDGPTYVLPLGDVRSIRYANGEEEVFAPA
4. HMDPIATLTPREREVLSLMAEGRSNGAIAAALVVGDGAVEKHVSNIFQKLELTPAEGDHRRVLAVLRWLE
5. HMEYELYALKEEVLKRLTREDRELLILLFEERRTIHAVAQRLGLSDSAVYKRRTQLVNKVKVIASMLM
6. HMTVKKEIAKVKPTPLGWLRVRETPSLNGAEITKVNTGESYDVLDKETGWIKIKVSETVEGWVSDAYIELS
7. HMPLNRFLNLPHEDKERVLLIAKKQFSTHGYDAMSLNLLLKELDISKGQFYYWFEDKADLFFTVL

1. -0.414
2. -2.91
3. -0.223
4. -0.909
5. -2.22
6. -0.319
7. -0.11

For the 5 sequences below, give their soluble fraction (log2) values.
1. HMPAMYKAERMNQILSILADQGDVDVGTLARQFGVSLVTIRKDLTYLESSGQLVRTHGGAIAVA
2. HMLKLTDRQKVILSILMSDGEKTASWIASQLGVGLRSVQLDLSYLRNNGFIKKASKSTHSAWIVLKK
3. HMGGPRDVPYSTFLIEVEKGQVAEVTIQDHKITGTYKNSNEPFITNAPDDPDLVSRLIKYGVGVQAKPPE
4. HMSVEYRKTLSDGNEYQIVKEKNGYVIKKSLNEGLDYLEPMKNRKYYSSYSQAFKRLNLIAKEVNINEGYD
5. HMFESQYIGKIATAITDISAFSGRLKIYDENWEARTLGEDAPEIKKGAKVKIVRHDDLTMFVEKK

[-0.707, -4.1, 0.0896, -0.511, -0.397]

Provide soluble fraction (log2) values for the following items, in order.
1. HMLPDVSITGHIFIRSGSRLNRIFVGESTYHVGDMLDGKWLIESINSDSLELRSGTQTTELPL
2. HMHINLEGLKKIDFRKKIGFLFGSEASGLSNKEVSYANYTLQIPTNINFKSLNLSHSLIIIAQFISSLLNS
3. HMRLHSSGEDYLKAIFILEAQHSSVRSVEVAEYMNVSKASVSHAVALLKKNGFLKMNQDYDLTER

-2.83
-0.55
-0.163

Hi, could you look up soluble fraction (log2) for each item in my list?
1. HMDVPTSSITEVKKSPMDVFAQARKAETGVYIFNREKIAGVMLTKEQYEALVEELNTLRDTL
2. HMRAVFEQLRIGQTLAGVVKAQEKGFSLVEIDGQTVAMRLPHPAAVGDTLRLRFAGHMPQAVFLLES

[-0.68, -1.99]
